Some compounds, each annotated with its measured %Inh.
Tested on: MYLK4;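 further: KINOMEscan kinase panel screen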
measurement.setup: concentration: 1 μM, replicates: in singlicate; n = 1
// units = %; emit number, no label

Worked cases, answers included:
{"columns": ["smiles.repr", "units.of.measure", "measured.value"],
 "data": [
  ["Fc1ccc(Nc2nccc(-c3c(-c4ccc(Cl)cc4)nn4ncccc34)n2)cc1F", "%", 0],
  ["Cl.Fc1ccccc1COc1ccc(Nc2ncnc3ccc(-c4nnc(C(F)(F)F)o4)cc23)cc1Cl", "%", 0],
  ["CSc1nn2c(=O)cc(N3CCOCC3)nc2n1Cc1cccc(Cl)c1Cl", "%", 4]
]}

Now examine the next entry.
Query string: What measured %Inh goes with Cl.O=S(=O)(c1cccc(F)c1)c1ccc(Nc2ncnc3cc(Br)sc23)cc1Cl ?
Result string: 9
